# EXPERIMENTAL DETAILS: Cmax in Sprague-Dawley rat at 100 mg/kg, po
# Type: ADME, organism-based
# Set-up: dose 100 mg/kg, route oral
# SETUP CONDITIONS: in vivo
MEASUREMENT NAME: Cmax (µM)
The response must be a number in µM with no trailing unit.

Quote Cmax reported for `O=S(=O)(Nc1cc(Cl)c(Oc2cnc3ccccc3c2)c(Cl)c1)c1ccc(Cl)cc1Cl` please.
6.1

###

# EXPERIMENTAL DETAILS: AUC (0 to 24 hrs) in Sprague-Dawley rat at 100 mg/kg, po
# Format: ADME, organism-based
# Design: time < 24 hr, dose 100 mg/kg, route oral
# SETUP CONDITIONS: plasma
MEASUREMENT NAME: AUC(0-t) at 24 h

Report measured AUC(0-t) at 24 h; entry is O=S(=O)(Nc1cc(Cl)c(Oc2cnc3ccccc3c2)c(Cl)c1)c1ccc(Cl)cc1Cl [INT131]
100 µM·h

###

# EXPERIMENTAL DETAILS: AUC (0 to 24 hrs) in Sprague-Dawley rat at 30 mg/kg, po
# Assay type: ADME, organism-based
# Design: time < 24 hr, dose 30 mg/kg, route oral
# SETUP CONDITIONS: plasma
MEASUREMENT NAME: AUC(0-t) at 24 h
Remember to quote the unit after the number.

Input O=S(=O)(Nc1cc(Cl)c(Oc2cnc3ccccc3c2)c(Cl)c1)c1ccc(Cl)cc1Cl [INT131] , output reported AUC(0-t) at 24 h.
71 µM·h

###

# EXPERIMENTAL DETAILS: Cmax in Sprague-Dawley rat at 5 mg/kg, po
# Assay type: ADME, organism-based
# Set-up: dose 5 mg/kg, route oral
# SETUP CONDITIONS: in vivo
Response field label: string, one of TRUE (Cmax strictly below 8 µM) or FALSE.

SMILES RECORD: O=S(=O)(Nc1cc(Cl)c(Oc2cnc3ccccc3c2)c(Cl)c1)c1ccc(C(F)(F)F)cc1Cl
CLASSIFICATION: FALSE

SMILES RECORD: O=S(=O)(Nc1cc(Cl)c(Oc2cnc3ccccc3c2)c(Cl)c1)c1ccc(Cl)cc1Cl
CLASSIFICATION: TRUE

SMILES RECORD: CC(=O)c1cc(NS(=O)(=O)c2ccc(Cl)cc2Cl)ccc1Oc1cnc2ccccc2c1
CLASSIFICATION: TRUE

Lab note: Cmax threshold 8 µM. Does this compound come in strictly under it? `O=S(=O)(Nc1ccc(Oc2cnc3ccccc3c2)c(F)c1)c1ccc(Cl)cc1Cl`
TRUE

Quick check: Cmax of `O=S(=O)(Nc1ccc(Oc2cnc3ccccc3c2)c(Cl)c1)c1ccc(Cl)cc1Cl` under 8 µM?
FALSE

###

# EXPERIMENTAL DETAILS: Oral bioavailability in Sprague-Dawley rat at 5 mg/kg
# Assay type: ADME, organism-based
# SETUP CONDITIONS: in vivo
MEASUREMENT NAME: bioavailability (%)
The response must be a number in % with no trailing unit.

Return value of bioavailability for input `CCNC(=O)c1cc(NS(=O)(=O)c2cc(C)c(Cl)cc2Cl)ccc1Oc1cncc(Cl)c1` , no commentary.
8

###

# EXPERIMENTAL DETAILS: AUC (0 to 24 hrs) in Sprague-Dawley rat at 0.1 mg/kg, po
# Type: ADME, organism-based
# Set-up: time < 24 hr, dose 0.1 mg/kg, route oral
# SETUP CONDITIONS: plasma
MEASUREMENT NAME: AUC(0-t) at 24 h
Lab note: write values as number then unit, every time.

State its AUC(0-t) at 24 h: `O=S(=O)(Nc1cc(Cl)c(Oc2cnc3ccccc3c2)c(Cl)c1)c1ccc(Cl)cc1Cl`
1.1 µM·h
